test: Hepatocyte clearance assay, human; assay type: in vitro ADME; settings: cryopreserved primary human hepatocytes, average value from two experiments, read-out: Human heps Clint
Please use t whenever hepatocyte CLint at 1 µM is not below 6 µL/min/1e6 cells, and f whenever it is.

[Q] In plain terms: is recorded hepatocyte CLint at 1 µM at least 6 µL/min/1e6 cells for Cc1c(F)cncc1NC(=O)/C=C/c1ccc2c(C)n[nH]c2c1 [Example 110] ?
[A] t

[Q] Check the entry COCc1c(F)cnc(C)c1NC(=O)/C=C/c1ccc2c(C)n[nH]c2c1 [Example 117] : does hepatocyte CLint at 1 µM equal or exceed 6 µL/min/1e6 cells?
[A] f

[Q] I'd appreciate it if you could say whether Cc1c(F)cccc1NC(=O)/C=C/c1ccc2c(c1)NC(=O)C2 [Example 10] has hepatocyte CLint at 1 µM at least equal to 6 µL/min/1e6 cells.
[A] f

[Q] Kindly determine if hepatocyte CLint at 1 µM recorded for Cc1cc(F)c(F)c(C)c1NC(=O)/C=C/c1ccc2c(c1)NC(=O)C2 [Example 36] is above or exactly 6 µL/min/1e6 cells.
[A] t

[Q] Reported hepatocyte CLint at 1 µM at or above 6 µL/min/1e6 cells? Cc1c(F)cccc1NC(=O)/C=C/c1ccc2cn[nH]c2c1 [Comparative Example 1, reference compound]
[A] t

[Q] Reported hepatocyte CLint at 1 µM at or above 6 µL/min/1e6 cells? Cc1c(F)cc(F)c(C)c1NC(=O)/C=C/c1ccc2c(c1)NC(=O)C2 [Example 35]
[A] t

[Q] Record Cc1c(F)cccc1NC(=O)/C(F)=C/c1ccc2c(c1)NC(=O)C2 [Example 47] ; criterion: hepatocyte CLint at 1 µM no lower than 6 µL/min/1e6 cells. Met?
[A] f

[Q] # check: hepatocyte CLint at 1 µM of Cc1ccc(F)c(C)c1NC(=O)/C=C/c1ccc2c(c1)[nH]c(=O)n2C [Example 30] is greater than or equal to 6 µL/min/1e6 cells
[A] t

[Q] Reported hepatocyte CLint at 1 µM reaches at least 6 µL/min/1e6 cells for Cc1ncc(F)c(C)c1NC(=O)/C=C/c1ccc2c(C)n[nH]c2c1 [Example 113] ?
[A] f

Cited source for all entries: patent US20250179028A1
